Data provenance: patent US4794079A

study.system: horseradish peroxidase (Armoracia rusticana)
Sequence (P00433 31-353): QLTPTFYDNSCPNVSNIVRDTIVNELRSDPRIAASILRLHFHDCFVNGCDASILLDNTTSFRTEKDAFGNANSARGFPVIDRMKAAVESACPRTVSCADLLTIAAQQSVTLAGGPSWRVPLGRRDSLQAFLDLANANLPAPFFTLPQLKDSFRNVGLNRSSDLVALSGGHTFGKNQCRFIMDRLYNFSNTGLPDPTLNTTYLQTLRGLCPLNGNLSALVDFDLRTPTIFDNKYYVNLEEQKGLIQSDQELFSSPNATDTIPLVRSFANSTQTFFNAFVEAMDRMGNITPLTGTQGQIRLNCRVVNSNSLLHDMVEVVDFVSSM
experiment: Detection of hydrogen peroxide: fluorescence of indicator compounds after adding horseradish peroxidase and hydrogen peroxide
Format: biochemical
assay.conditions: 200 secs, 1.0 μM compound, pH 7.0 or 7.5, 37° C., nM of fluorescent standard equivalent
test.readout: Relative Fluorescence of Indicator Compounds, Fluorescence Units, 200 secs (nM)
Field format: number, assumed nM, no unit text.

Answered examples (2):
Prompt: Please give the measured Relative Fluorescence of Indicator Compounds, Fluorescence Units, 200 secs for this compound: CCOC(=O)C1Cc2ccc(NC)cc2NC1=O (stereo not drawn)
Completion: 11.25

Prompt: Can you handle CCOC(=O)C1Cc2ccc(N(C)C)cc2NC1=O (stereo not drawn) next?
Completion: 101.5

Further cases:
Prompt: Please give the measured Relative Fluorescence of Indicator Compounds, Fluorescence Units, 200 secs for this compound: CCNC(=O)C1Cc2ccc(N(C)C)cc2N(C)C1=O (stereo not drawn)
Completion: 133.5

Prompt: Can you handle CCOC(=O)C1Cc2ccc(O)cc2N(C)C1=O (stereo not drawn) next?
Completion: 6.3

Prompt: Can you handle CCOC(=O)C1Cc2cc3c4c(c2OC1=O)CCCN4CCC3 (stereo not drawn) next?
Completion: 25.9

Prompt: Can you handle CN(C)c1ccc2c(c1)NC(=O)C(C(=O)[O-])C2.[K+] (stereo not drawn) next?
Completion: 24.3
